# Tested system: Prostaglandin G/H synthase 1 (Homo sapiens)
# Sequence (P23219 whole entry): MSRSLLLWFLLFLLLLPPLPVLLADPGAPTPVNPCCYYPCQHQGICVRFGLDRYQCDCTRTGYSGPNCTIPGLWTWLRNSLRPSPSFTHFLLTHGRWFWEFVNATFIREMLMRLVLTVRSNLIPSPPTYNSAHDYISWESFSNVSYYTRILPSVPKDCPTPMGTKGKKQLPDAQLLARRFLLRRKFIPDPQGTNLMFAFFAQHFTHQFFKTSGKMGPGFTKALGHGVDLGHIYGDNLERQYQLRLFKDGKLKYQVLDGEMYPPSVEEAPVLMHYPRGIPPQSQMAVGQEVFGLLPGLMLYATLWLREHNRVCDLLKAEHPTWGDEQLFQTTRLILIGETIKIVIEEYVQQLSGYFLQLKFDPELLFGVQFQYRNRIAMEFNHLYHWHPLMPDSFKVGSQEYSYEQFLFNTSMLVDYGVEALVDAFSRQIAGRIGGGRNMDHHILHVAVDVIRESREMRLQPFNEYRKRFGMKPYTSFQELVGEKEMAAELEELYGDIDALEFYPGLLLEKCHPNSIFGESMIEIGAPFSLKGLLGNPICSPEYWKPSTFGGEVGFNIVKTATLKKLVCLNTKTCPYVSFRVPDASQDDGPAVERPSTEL
# Procedure details: Inhibition of human COX1 assessed as reduction in PGF2alpha production using arachidonic acid as substrate preincubated with enzyme for 10 mins followed by substrate addition by ELISA
pIC50: −log10 of the molar value.
Listed here are compounds together with their documented pIC50.

[
  {
    "Smi": "COc1ccccc1/C=C/C1=NNC(=O)CC1",
    "pIC50": 6.57
  },
  {
    "Smi": "Cc1cccc(/C=C/c2ccc(=O)[nH]n2)c1",
    "pIC50": 6.43
  },
  {
    "Smi": "Cc1cccc(/C=C/C2=NNC(=O)CC2)c1",
    "pIC50": 6.35
  },
  {
    "Smi": "COc1ccccc1/C=C/c1ccc(=O)n(-c2ccccc2)n1",
    "pIC50": 6.34
  },
  {
    "Smi": "Cc1cccc(/C=C/C2=NN(c3ccc(F)cc3)C(=O)CC2)c1",
    "pIC50": 6.68
  },
  {
    "Smi": "COc1ccccc1/C=C/c1ccc(=O)[nH]n1",
    "pIC50": 6.28
  },
  {
    "Smi": "COc1ccccc1/C=C/C1=NN(c2ccccc2)C(=O)CC1",
    "pIC50": 6.41
  },
  {
    "Smi": "Cc1cccc(/C=C/c2ccc(=O)n(-c3ccc(F)cc3)n2)c1",
    "pIC50": 6.62
  },
  {
    "Smi": "COc1ccccc1/C=C/c1ccc(=O)n(-c2ccc(F)cc2)n1",
    "pIC50": 6.15
  },
  {
    "Smi": "COc1ccccc1/C=C/C1=NN(c2ccc(F)cc2)C(=O)CC1",
    "pIC50": 6.27
  },
  {
    "Smi": "O=C1CCC(/C=C/c2cccnc2)=NN1",
    "pIC50": 6.12
  }
]

====

# System: Rattus norvegicus
# Procedure details: Antiinflammatory activity against carrageenan-induced albino Sprague-Dawley rat paw edema model assessed as paw diameter at 10 mg/kg, po pretreated for 1 hr followed by carrageenan challenge and measured at 1 hr post-carrageenan injection (reference value: 4.51 +/- 0.09 mm)
# Format: functional

[
  {
    "Compound": "Cc1ccc(-c2cc(C(F)(F)F)nn2-c2ccc(S(N)(=O)=O)cc2)cc1 [CELECOXIB]",
    "Unit tag": "mm",
    "Activity": 3.93
  },
  {
    "Compound": "Cc1cccc(/C=C/C2=NNC(=O)CC2)c1",
    "Unit tag": "mm",
    "Activity": 3.99
  },
  {
    "Compound": "COc1ccccc1/C=C/c1ccc(=O)n(-c2ccc(F)cc2)n1",
    "Unit tag": "mm",
    "Activity": 3.97
  },
  {
    "Compound": "COc1ccc2c(c1)c(CC(=O)O)c(C)n2C(=O)c1ccc(Cl)cc1 [INDOMETHACIN]",
    "Unit tag": "mm",
    "Activity": 3.92
  },
  {
    "Compound": "O=C1CCC(/C=C/c2cccnc2)=NN1",
    "Unit tag": "mm",
    "Activity": 3.92
  },
  {
    "Compound": "Cc1cccc(/C=C/c2ccc(=O)[nH]n2)c1",
    "Unit tag": "mm",
    "Activity": 3.96
  }
]

====

# Tested on: Rattus norvegicus
# Procedure details: Antiinflammatory activity against carrageenan-induced albino Sprague-Dawley rat paw edema model assessed as paw diameter at 10 mg/kg, po pretreated for 1 hr followed by carrageenan challenge and measured immediately after carrageenan injection (reference value: 3.46 +/- 0.08 mm)
# Format: functional
Listed here are compounds together with their documented Activity.
Property name: Activity (mm)

[
  {
    "Compound": "Cc1ccc(-c2cc(C(F)(F)F)nn2-c2ccc(S(N)(=O)=O)cc2)cc1 [CELECOXIB]",
    "Unit tag": "mm",
    "Reported result": 3.48
  },
  {
    "Compound": "Cc1cccc(/C=C/C2=NNC(=O)CC2)c1",
    "Unit tag": "mm",
    "Reported result": 3.51
  },
  {
    "Compound": "COc1ccc2c(c1)c(CC(=O)O)c(C)n2C(=O)c1ccc(Cl)cc1 [INDOMETHACIN]",
    "Unit tag": "mm",
    "Reported result": 3.49
  },
  {
    "Compound": "COc1ccccc1/C=C/c1ccc(=O)n(-c2ccc(F)cc2)n1",
    "Unit tag": "mm",
    "Reported result": 3.59
  },
  {
    "Compound": "O=C1CCC(/C=C/c2cccnc2)=NN1",
    "Unit tag": "mm",
    "Reported result": 3.53
  },
  {
    "Compound": "Cc1cccc(/C=C/c2ccc(=O)[nH]n2)c1",
    "Unit tag": "mm",
    "Reported result": 3.55
  }
]
